- target-of-assay: recombinant human PAD2 (human, UniProt Q9Y2J8 1-665)
- Sequence (Q9Y2J8 whole entry): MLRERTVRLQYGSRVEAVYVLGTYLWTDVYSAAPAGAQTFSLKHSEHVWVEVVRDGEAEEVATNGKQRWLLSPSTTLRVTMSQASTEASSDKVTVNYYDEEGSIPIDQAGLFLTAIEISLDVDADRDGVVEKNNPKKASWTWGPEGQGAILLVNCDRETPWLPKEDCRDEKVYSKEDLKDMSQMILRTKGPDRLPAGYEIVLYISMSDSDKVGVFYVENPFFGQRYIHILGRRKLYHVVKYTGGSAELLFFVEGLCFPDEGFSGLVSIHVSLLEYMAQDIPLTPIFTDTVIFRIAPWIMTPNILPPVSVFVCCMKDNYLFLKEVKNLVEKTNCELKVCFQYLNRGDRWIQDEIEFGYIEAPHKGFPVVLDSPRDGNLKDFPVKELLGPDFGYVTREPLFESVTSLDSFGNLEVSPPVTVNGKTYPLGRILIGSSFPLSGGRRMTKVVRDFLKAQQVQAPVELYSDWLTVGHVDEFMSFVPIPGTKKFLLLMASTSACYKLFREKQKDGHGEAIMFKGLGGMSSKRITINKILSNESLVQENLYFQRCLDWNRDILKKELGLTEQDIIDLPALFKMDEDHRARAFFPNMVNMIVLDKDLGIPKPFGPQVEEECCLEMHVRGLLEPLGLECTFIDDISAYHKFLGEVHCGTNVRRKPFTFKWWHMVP
- experimental-protocol: cell-based or functional assay
Square brackets hold non-standard residues; d marks the D form. * marks the point of attachment. Orn(fluoroacetimidoyl) = N=C(CF)NCCC[C@H](N)C(=O)O; 2Naphthylsulfonyl = O=S(=O)(c1ccc2ccccc2c1)*; AEEA = NCCOCCOCC(=O)O
readout: Inhibition of PAD2: value at 20 µM inhibitor (0 µM: 74) (%)

# binder, value-unit, measured-number
records = [
    ("2Naphthylsulfonyl-KFD[Orn(fluoroacetimidoyl)]DFI-NH2 [0837-29FA]", "%", 9),
    ("Ac-KFD[Orn(fluoroacetimidoyl)]DFI[AEEA]-NH2 (SMILES CC[C@H](C)[C@H](NC(=O)[C@H](Cc1ccccc1)NC(=O)[C@H](CC(=O)O)NC(=O)[C@H](CCCNC(=N)CF)NC(=O)[C@H](CC(=O)O)NC(=O)[C@H](Cc1ccccc1)NC(=O)[C@H](CCCCN)NC(C)=O)C(=O)NCCOCCOCC(N)=O) [0837-13FA]", "%", 30),
    ("Ac-KFD[Orn(fluoroacetimidoyl)]DFI-NH2 (SMILES CC[C@H](C)[C@H](NC(=O)[C@H](Cc1ccccc1)NC(=O)[C@H](CC(=O)O)NC(=O)[C@H](CCCNC(=N)CF)NC(=O)[C@H](CC(=O)O)NC(=O)[C@H](Cc1ccccc1)NC(=O)[C@H](CCCCN)NC(C)=O)C(N)=O) [0743-58FA]", "%", 26),
    ("2Naphthylsulfonyl-KFD[Orn(fluoroacetimidoyl)]DFI[AEEA]-NH2 (SMILES CC[C@H](C)[C@H](NC(=O)[C@H](Cc1ccccc1)NC(=O)[C@H](CC(=O)O)NC(=O)[C@H](CCCNC(=N)CF)NC(=O)[C@H](CC(=O)O)NC(=O)[C@H](Cc1ccccc1)NC(=O)[C@H](CCCCN)NS(=O)(=O)c1ccc2ccccc2c1)C(=O)NCCOCCOCC(N)=O) [0837-27FA]", "%", 14),
]
